Let's look at some molecules and their measured Potency.
experimental-details: qHTS for Inhibitors of Plasmodium falciparum (DD2) proliferation (AID 504314); further: potency means the concentration at half of the fitted maximal effect
experimental-context: P. falciparum Dd2 in erythrocytes, SYBR Green growth, 72 h; series mostly up to 6.11 µM
Results filed as inconclusive are left out. Active and inactive are the calls of the source. The call rests on the fitted dose curve; in most records, active means well fitted inhibition curve with a large enough effect; inconclusive means small, poorly fitted or top-dose-only effect; inactive means flat fitted curve, though single readings scatter.
assay-readout: Potency

molecule: COCOc1cc(OC)ccc1C(=O)C=Cc1ccc([N+](=O)[O-])cc1
assay-readout: Potency
result: 1500 nM (active)

molecule: COc1cc2c(cc1OC)[C@@H]1O[C@](CCCCN3C(=O)c4ccccc4C3=O)(C2)OC2=C1C(=O)CC(C)(C)C2
assay-readout: Potency
result: 753 nM (active)

molecule: O=C1C2=C(C(=O)c3ccccc31)[C@H]1O[C@](CCCCN3C(=O)c4ccccc4C3=O)(Cc3c1ccc1ccccc31)O2
assay-readout: Potency
result: 1500 nM (active)

molecule: Cc1ccc(C(=O)OC[C@H]2O[C@H](Cl)C[C@H]2OC(=O)c2ccc(C)cc2)cc1
assay-readout: Potency
result: 1690 nM (active)

molecule: COc1cc2c(cc1OC)[C@@H]1O[C@](CCCCN3C(=O)c4ccccc4C3=O)(C2)OC2=C1C(=O)c1ccccc1C2=O
assay-readout: Potency
result: 1340 nM (active)

molecule: CC(C)(C)c1nc(-c2ccccc2)oc1Nc1ccc2ccccc2c1
assay-readout: Potency
result: 1690 nM (active)

molecule: CCCC[C@]12Cc3ccccc3[C@H](O1)c1c(cc(-c3ccccc3)oc1=O)O2
assay-readout: Potency
result: 1690 nM (active)

molecule: COc1cc2c(cc1OC)[C@@H]1O[C@](CCCCN3C(=O)c4ccccc4C3=O)(C2)Oc2c1c(=O)oc1ccccc21
assay-readout: Potency
result: 1500 nM (active)

molecule: CC(C)=CCN1C(=O)[C@]2(O[C@H](COc3ccccc3)CC3=CCCC32)c2c(Br)cccc21 (some centres undefined)
assay-readout: Potency
result: 3780 nM (active)

---

Tested on: CRL-7250
experimental-details: Cytotoxic Profiling of Annotated Libraries Using Quantitative High-Throughput Screening (AID 1296008); further: nearly all actives have a fitted effect of over 60% in size
experimental-context: Five cell lines viability, CellTiter-Glo ATP luminescence, 48-72 h
Records with an inconclusive call do not appear. Activity calls are given as the source filed them. The call rests on the fitted dose curve; in most records, active means well fitted inhibition curve with a large enough effect; inconclusive means small, poorly fitted or top-dose-only effect; inactive means flat fitted curve, though single readings scatter.
Labels: Yes = active, No = inactive

compound: COc1ccccc1-c1cc(Nc2cccc(CS(N)(=O)=O)c2)ncn1
class-label: Yes
--
compound: CC1CCC2C(C)(C)C(O)CCC2(C)C12Cc1c(O)cc3c(c1O2)CN(C(CCCN=C(N)N)C(=O)O)C3=O (configuration not stated)
class-label: No
--
compound: COc1cc(-c2cc(-c3ccc(N4CCNCC4)cc3)cnc2C)cc(OC)c1OC
class-label: No
--
compound: CC(=O)N1c2ccc(-c3ccc(C(=O)O)cc3)cc2C(Nc2ccc(Cl)cc2)CC1C (configuration not stated)
class-label: Yes
--
compound: N#Cc1c[nH]c2c(C(=O)N3CCN(CCc4ccc(F)cc4)CC3)cccc12
class-label: No
--
compound: CC/C(=C(\c1ccc(O)cc1)c1ccc(OCCNC)cc1)c1ccccc1
class-label: No
--
compound: CC1(C)CC[C@]2(C(=O)OC3OC(CO)C(O)C(O)C3O)CC[C@]3(C)C(=CCC4[C@@]5(C)CC[C@H](OC6OC(C(=O)O)C(O)C(O)C6O)C(CO)(CO)C5CC[C@]43C)[C@@H]2C1 (some centres not stated)
class-label: Yes
--
compound: CCN(CC)c1ccc(C(=C2C=CC(=[N+](CC)CC)C=C2)c2cc(S(=O)(=O)O)ccc2S(=O)(=O)[O-])cc1
class-label: Yes
--
compound: CC1OC2OC3C(OCC(O)C3O)OC(=O)C34CCC(C)(C)CC3C3=CCC5C6(C)CC(O)C(OC7OC(CO)C(O)C(O)C7OC7OCC(OC(=O)CC(C)(O)CC(=O)OC1C(OC1OCC(O)C(O)C1O)C2O)C(O)C7O)C(C)(CO)C6CCC5(C)C3(C)CC4O (configuration not stated)
class-label: Yes
--
compound: COc1ccc2c(c1)C[C@H](C(=O)Nc1ccc(-c3cn[nH]c3)cc1OCCN(C)C)CO2
class-label: Yes
--
compound: CC(C)CCC[C@@H](C)[C@H]1CC[C@H]2[C@@H]3CC=C4C[C@@H](OC(=O)NCCN(C)C)CC[C@]4(C)[C@H]3CC[C@]12C
class-label: No
--
compound: CNC(=O)c1cccc2cc(Oc3ccnc4cc(OCC5(N)CC5)c(OC)cc34)ccc12
class-label: Yes
